experiment: Pharmacokinetics of NA and NUA in plasma after single oral doses of Niacin extended-release/Simvastatin tablets in healthy Chinese volunteers; assay type: in vivo; conditions: both sexes, human, plasma, po, 1 tablet (500 mg/10 mg), mean ± S.D., n = 12, read-out: MRT0–t
Parameter: MRT last (h)
Field format: number, assumed h, no unit text.

I am curious: what MRT last value has been reported for O=C(O)c1cccnc1 [NA, 3-pyridine-carboxylic acid] ? 5.37

---

test: Pharmacokinetics of NA and NUA in plasma after single oral doses of Niacin extended-release/Simvastatin tablets in healthy Chinese volunteers; assay type: in vivo; conditions: both sexes, human, in vivo, po, 3 tablets (1500 mg/30 mg), mean ± S.D., n = 12
Parameter: AUC(0-t) (ng·h/mL)
Field format: number, assumed ng·h/mL, no unit text.

I am curious: what AUC(0-t) value has been reported for O=C(O)CNC(=O)c1cccnc1 [NUA, nicotinuric acid] ? 10200

---

assay: Pharmacokinetics of NA and NUA in plasma after single oral doses of Niacin extended-release/Simvastatin tablets in healthy Chinese volunteers; assay type: in vivo; details: both sexes, human, in vivo, po, 3 tablets
Parameter: AUC(0-t) (ng·h/mL)
Field format: number, assumed ng·h/mL, no unit text.

I am curious: what AUC(0-t) value has been reported for O=C(O)CNC(=O)c1cccnc1 [NUA, nicotinuric acid] ? 10200

---

experiment: Pharmacokinetics of NA and NUA in plasma after single oral doses of Niacin extended-release/Simvastatin tablets in healthy Chinese volunteers; type: in vivo; conditions: both sexes, human, plasma, po, 3 tablets (1500 mg/30 mg), mean ± S.D., n = 12
Parameter: Tmax (h)
Field format: number, assumed h, no unit text.

I am curious: what Tmax value has been reported for O=C(O)c1cccnc1 [NA, 3-pyridine-carboxylic acid] ? 2.42

---

Assay: Pharmacokinetics of NA and NUA in plasma after single oral doses of Niacin extended-release/Simvastatin tablets in healthy Chinese volunteers
Assay type: in vivo
Settings: both sexes, human, in vivo, po, 2 tablets (1000 mg/20 mg), mean ± S.D., n = 12, read-out: C max
Procedure: Extraction of NA and NUA was carried out by protein precipitation. First, 50 μL of the IS working solution (1000 ng/mL 5-FU) and 50 μL of water were added to a 100 μL aliquot of human plasma. […] The pharmacokinetic parameters were calculated with data analysis system (DAS) program (version 2.0, Mathematical Pharmacology Professional Committee, Shanghai, China). […] The area under the curve from time zero to the last sampling time (AUC0−t) was determined using the linear trapezoidal rule.
Parameter: Cmax
Please don't drop the unit; write it after the number.

I am curious: what Cmax value has been reported for O=C(O)CNC(=O)c1cccnc1 [NUA, nicotinuric acid] ? 1630 ng/mL

---

test: Pharmacokinetics of NA and NUA in plasma after single oral doses of Niacin extended-release/Simvastatin tablets in healthy Chinese volunteers; assay type: in vivo; settings: both sexes, human, plasma, po, 1 tablet (500 mg/10 mg), mean ± S.D., n = 12, read-out: V z/F
Parameter: Vd/F (L)
Field format: number, assumed L, no unit text.

I am curious: what Vd/F value has been reported for O=C(O)c1cccnc1 [NA, 3-pyridine-carboxylic acid] ? 13700

---

experiment: Pharmacokinetics of NA and NUA in plasma after single oral doses of Niacin extended-release/Simvastatin tablets in healthy Chinese volunteers; assay type: in vivo; conditions: both sexes, human, plasma, po, 2 tablets (1000 mg/20 mg), mean ± S.D., n = 12, read-out: V z/F
Parameter: Vd/F (L)
Field format: number, assumed L, no unit text.

I am curious: what Vd/F value has been reported for `O=C(O)c1cccnc1` ? 7650
